Biological target: Gonadotropin-releasing hormone receptor (Rattus norvegicus)
Sequence (P30969 whole entry): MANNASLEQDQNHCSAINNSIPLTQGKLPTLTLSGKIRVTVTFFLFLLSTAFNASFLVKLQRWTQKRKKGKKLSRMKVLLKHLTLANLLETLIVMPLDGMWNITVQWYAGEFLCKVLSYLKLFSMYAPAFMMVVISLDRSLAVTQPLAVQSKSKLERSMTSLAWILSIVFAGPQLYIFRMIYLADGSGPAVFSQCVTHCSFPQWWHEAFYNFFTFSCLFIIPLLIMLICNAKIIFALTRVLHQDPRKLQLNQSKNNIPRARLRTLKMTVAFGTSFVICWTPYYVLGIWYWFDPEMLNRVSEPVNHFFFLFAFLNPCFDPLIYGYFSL
Assay: Inhibition GnRH-stimulated luteinizing hormone (LH) release from rat pituitary cells
Format: functional, cell-based, Pituitary gland cell
IC50 under 200 nM gets yes (1), anything at or over 200 nM gets no (0).

Compound	Assayed target	Category label
CCN(CC)C(=O)C(C)c1ccc2[nH]c(-c3cc(C)cc(C)c3)c(CCNCCCCc3ccc(NS(C)(=O)=O)cc3)c2c1 (configuration not stated)	Gonadotropin-releasing hormone receptor (Rattus norvegicus)	yes (1)
Cc1cc(C)cc(-c2[nH]c3ccc(C(=O)N(C)C)cc3c2CCNCCCCc2ccc(NS(C)(=O)=O)cc2)c1	Gonadotropin-releasing hormone receptor (Rattus norvegicus)	no (0)
Cc1cc(C)cc(-c2[nH]c3ccc(C(C)(C)C(=O)N4C(C)CCC4C)cc3c2CCNCCCCc2ccc(NS(C)(=O)=O)cc2)c1 (configuration not stated)	Gonadotropin-releasing hormone receptor (Rattus norvegicus)	yes (1)
CCOC(=O)C(C)c1ccc2[nH]c(-c3cc(C)cc(C)c3)c(CCNCCCCc3ccc(NS(C)(=O)=O)cc3)c2c1 (configuration not stated)	Gonadotropin-releasing hormone receptor (Rattus norvegicus)	no (0)
CCOC(=O)C(C)(C)c1ccc2[nH]c(-c3cc(C)cc(C)c3)c(CCNCCCCc3ccc(NS(C)(=O)=O)cc3)c2c1	Gonadotropin-releasing hormone receptor (Rattus norvegicus)	yes (1)
CCN(CC)C(=O)c1ccc2[nH]c(-c3cc(C)cc(C)c3)c(CCNCCCCc3ccc(NS(C)(=O)=O)cc3)c2c1	Gonadotropin-releasing hormone receptor (Rattus norvegicus)	no (0)
Cc1cc(C)cc(-c2[nH]c3ccc(C(=O)N4CCOCC4)cc3c2CCNCCCCc2ccc(O)cc2)c1	Gonadotropin-releasing hormone receptor (Rattus norvegicus)	no (0)
Cc1cc(C)cc(-c2[nH]c3ccc(C(=O)N4C(C)CCC4C)cc3c2CCNCCCCc2ccc(NS(C)(=O)=O)cc2)c1 (configuration not stated)	Gonadotropin-releasing hormone receptor (Rattus norvegicus)	yes (1)

Field: below-cutoff. Rule: recorded IC50 strictly less than 200 nM. Subject: Cc1cc(C)cc(-c2[nH]c3ccc(CC(=O)N(C)C)cc3c2CCNCCCCc2ccc(NS(C)(=O)=O)cc2)c1
no (0)

Lab note: confirm whether the reported IC50 for this compound is below 200 nM, equality not counting. compound: Cc1cc(C)cc(-c2[nH]c3ccc(C(=O)N(C(C)C)C(C)C)cc3c2CCNCCCCc2ccc(NS(C)(=O)=O)cc2)c1
yes (1)

Take the compound Cc1cc(C)cc(-c2[nH]c3ccc(C(C)(C)C(=O)N4CCOCC4)cc3c2CCNCCCCc2ccc(NS(C)(=O)=O)cc2)c1 and say whether its IC50 is less than 200 nM.
yes (1)

###

Molecular target: Gonadotropin-releasing hormone receptor (Rattus norvegicus)
Experiment: Inhibition of [125I]buserelin binding to rat pituitary Gonadotropin-releasing hormone receptor, in the absence of bovine serum albumin (BSA)
Measured property: pIC50
# pIC50 = -log10(concentration in molar units)

Molecule	Assayed target	Measured
Cc1cc(C)cc(-c2[nH]c3ccc(C(=O)N4CCOCC4)cc3c2CCNCCCCc2ccc(O)cc2)c1	Gonadotropin-releasing hormone receptor (Rattus norvegicus)	8.40
CCOC(=O)Cc1ccc2[nH]c(-c3cc(C)cc(C)c3)c(CCNCCCCc3ccc(NS(C)(=O)=O)cc3)c2c1	Gonadotropin-releasing hormone receptor (Rattus norvegicus)	8.70
CCCN(CCC)C(=O)C(C)(C)c1ccc2[nH]c(-c3cc(C)cc(C)c3)c(CCNCCCCc3ccc(NS(C)(=O)=O)cc3)c2c1	Gonadotropin-releasing hormone receptor (Rattus norvegicus)	8.30
Cc1cc(C)cc(-c2[nH]c3ccc(C(=O)N(C)C)cc3c2CCNCCCCc2ccc(O)cc2)c1	Gonadotropin-releasing hormone receptor (Rattus norvegicus)	8.30
CCOC(=O)c1ccc2[nH]c(-c3cc(C)cc(C)c3)c(CCNCCCCc3ccc(O)cc3)c2c1	Gonadotropin-releasing hormone receptor (Rattus norvegicus)	7.49

Given CCCCN(CC)C(=O)c1ccc2[nH]c(-c3cc(C)cc(C)c3)c(CCNCCCCc3ccc(NS(C)(=O)=O)cc3)c2c1 , state its recorded pIC50.
8.40

# get_value(readout='pIC50', item= CCN(CC)C(=O)c1ccc2[nH]c(-c3cc(C)cc(C)c3)c(CCNCCCCc3ccc(O)cc3)c2c1 )
8.22

Which pIC50 value belongs to CCN(C(=O)c1ccc2[nH]c(-c3cc(C)cc(C)c3)c(CCNCCCCc3ccc(NS(C)(=O)=O)cc3)c2c1)C(C)C ?
8.52

Field request: pIC50 | item: CCN(CC)C(=O)C(C)c1ccc2[nH]c(-c3cc(C)cc(C)c3)c(CCNCCCCc3ccc(NS(C)(=O)=O)cc3)c2c1 (configuration not stated)
8.70

Which measured pIC50 value corresponds to Cc1cc(C)cc(-c2[nH]c3ccc(C(C)(C)C(=O)N4CCCC4)cc3c2CCNCCCCc2ccc(NS(C)(=O)=O)cc2)c1 ?
8.70
